- Tested on: HCT-15 colon
- MEASUREMENT_DESCRIPTION: NCI tumour cell line growth inhibition, 48 h
MEASUREMENT_NAME: TGI

>>> observed_measurement("c1cc2c3c(c1)c1cc4c(cc1c[n+]3CC2)OCO4")
"> 225 µM"
>>> observed_measurement("COc1ccc(-c2cnnn2-c2nonc2-n2cccc2)cc1OC")
"> 100 µM"
>>> observed_measurement("COC(=O)C(=O)C(CC(=O)Nc1ccc(C)cc1)C(=O)OC (stereo not given)")
"> 100 µM"
>>> observed_measurement("COc1ccc(Nc2nc(Nc3cc(C)[nH]n3)c3cc(OC)c(OC)cc3n2)cc1")
"2.45 µM"
>>> observed_measurement("O=[N+]([O-])c1cc([As](Br)c2ccc(O)c([N+](=O)[O-])c2)ccc1O")
"> 20.8 µM"

###

- Test system: K-562 leukemia
- MEASUREMENT_DESCRIPTION: NCI tumour cell line growth inhibition, 48 h; in the data active means GI50 below about 0.43 µM; inactive means the rest
Possible outcomes: active, inactive

>>> label_class("C/C(=C(/c1ccccc1)c1ccc(OCC(O)CNCCN2CCOCC2)cc1)c1ccccc1 (stereo not drawn)")
"inactive"
>>> label_class("Clc1ccc(/C=C/c2ccc3ccccc3n2)cc1")
"inactive"
>>> label_class("CCCCCCCCCc1ccc(OCCOCCOCCOCCOCCOCCOCCOCCOCCO)cc1")
"active"

###

- System: TK-10 renal
- MEASUREMENT_DESCRIPTION: NCI tumour cell line growth inhibition, 48 h
MEASUREMENT_NAME: TGI

>>> observed_measurement("COc1ccc(-c2c(-c3ccccc3)c(C)c3ccccn23)cc1")
"> 100 µM"
>>> observed_measurement("O=C(O)c1nc2ccc(C(F)(F)F)cc2nc1Nc1ccc(Cl)c(Cl)c1")
"> 100 µM"
>>> observed_measurement("Cc1cccc2[nH]c3c(c(O)cc4[nH]c5cccc(C)c5c(=O)c43)c(=O)c12")
"> 10 µM"
>>> observed_measurement("N=c1c2ccccc2sc2nc3ccccc3n12")
"> 100 µM"
>>> observed_measurement("CCOC(=O)c1sc2c(c1OC(=O)c1cc(OC)c(OC)c(OC)c1)c(=O)n(-c1ccccc1)c(=S)n2-c1ccccc1")
"> 100 µM"
>>> observed_measurement("C1=Cc2nc1c(-c1ccccc1)c1ccc([nH]1)c(-c1ccccc1)c1nc(c(-c3ccccc3)c3ccc([nH]3)c2-c2ccccc2)C=C1")
"> 100 µM"

###

- System: A549 NSCLC
- MEASUREMENT_DESCRIPTION: NCI tumour cell line growth inhibition, 48 h
MEASUREMENT_NAME: GI50

>>> observed_measurement("COc1ccc(-c2c(C#N)c(N)nc(N3CCOCC3)c2C#N)cc1")
"29.4 µM"
>>> observed_measurement("CCOC(=O)c1sc(-c2ccc(OS(=O)(=O)C[C@]34CCC(CC3=O)C4(C)C)c(C=O)c2)nc1C")
"1.25 µM"
>>> observed_measurement("COc1ccc(-c2cnnn2-c2nonc2-n2cccc2)cc1OC")
"4.15 µM"
>>> observed_measurement("CC(NC(=O)Cc1ccc(C(F)(F)P(=O)(OCc2ccc([N+](=O)[O-])o2)N(C)CCCCCl)cc1)c1ccc(OCC2CCCCC2)c(C(N)=O)c1 (stereo not given)")
"14.5 µM"
>>> observed_measurement("C=C(CN1CCc2c([nH]c3ccccc23)C1)c1ccc(C(=O)Nc2ccccc2N)cc1")
"4.85 µM"
